experiment: Drug degradation in H2O2 solution at 2.7 mM after 1 month by HPLC/MS/NMR analysis in presence of Fe2+; format: physicochemical; conditions: H2O2 solution with Fe2+; read-out: Drug degradation
value-kind: degraded at 730.5 h

Task item: Fill in the blank: the reported degraded at 730.5 h of `NCCCC[C@H]1NC(=O)[C@H](Cc2c[nH]cn2)NC(=O)[C@@H](Cc2c[nH]cn2)NC(=O)[C@H](Cc2c[nH]cn2)NC(=O)[C@@H](Cc2c[nH]cn2)NC(=O)[C@H](Cc2c[nH]c3ccccc23)NC(=O)[C@@H](Cc2c[nH]c3ccccc23)NC(=O)[C@H](Cc2c[nH]cn2)NC1=O` is ____.
Reply: < 5%
